List of % VIABILITY ± S.D. values.
- Tested on: SKO
- Assay Text: MTT cytotoxicity assay in SKO MM cell line
- Cond: SKO, single phytocannabinoid 25 μM, daily, 72 hours, vs vehicle
Measure Name: % VIABILITY ± S.D.

[[record]]
molecule = "CCCCCc1cc(O)c2c(c1)OC(C)(CCC=C(C)C)C=C2 (stereo not shown) [CBC]"
observed_result = "94.3 ± 6.3%"

[[record]]
molecule = "CCCCCc1cc(O)c(C/C=C(\\C)CCC=C(C)C)c(O)c1 [CBG]"
observed_result = "84.6 ± 5.5%"

[[record]]
molecule = "C=C(C)[C@@H]1CCC(C)=C[C@H]1c1c(O)cc(CCC)cc1O [CBDV]"
observed_result = "54.6 ± 4.4%"

[[record]]
molecule = "CCCCCc1cc(O)c2c(c1)OC(C)(C)c1ccc(C)cc1-2 [CBN]"
observed_result = "60.6 ± 3.8%"


---

- Test system: U266
- Assay Text: MTT cytotoxicity assay in U266 MM cell line
- Cond: U266, single phytocannabinoid 12.5 μM, daily, 72 hours, vs vehicle
List of % VIABILITY ± S.D. values.
Measure Name: % VIABILITY ± S.D. (%)

[[record]]
compound = "CCCCCc1cc(O)c2c(c1)OC(C)(CCC=C(C)C)C=C2 (stereo not shown)"
target_of_assay = "U266"
measure_name = "% VIABILITY ± S.D."
observed_result = 106.2

[[record]]
compound = "C=C(C)[C@@H]1CCC(C)=C[C@H]1c1c(O)cc(CCC)cc1O"
target_of_assay = "U266"
measure_name = "% VIABILITY ± S.D."
observed_result = 88.6

[[record]]
compound = "CCCCCc1cc(O)c2c(c1)OC(C)(C)c1ccc(C)cc1-2"
target_of_assay = "U266"
measure_name = "% VIABILITY ± S.D."
observed_result = 89.6

[[record]]
compound = "CCCCCc1cc(O)c(C/C=C(\\C)CCC=C(C)C)c(O)c1"
target_of_assay = "U266"
measure_name = "% VIABILITY ± S.D."
observed_result = 97.4


---

- System: SKO
- Assay Text: MTT cytotoxicity assay in SKO MM cell line
- Cond: SKO, single phytocannabinoid 12.5 μM, daily, 72 hours, vs vehicle
List of % VIABILITY ± S.D. values.
Measure Name: % VIABILITY ± S.D.

[[record]]
molecule = "CCCCCc1cc(O)c2c(c1)OC(C)(CCC=C(C)C)C=C2 (stereo not shown)"
target_of_assay = "SKO"
measure_name = "% VIABILITY ± S.D."
observed_result = "96.5 ± 6.7%"

[[record]]
molecule = "CCCCCc1cc(O)c(C/C=C(\\C)CCC=C(C)C)c(O)c1"
target_of_assay = "SKO"
measure_name = "% VIABILITY ± S.D."
observed_result = "105.4 ± 4.4%"

[[record]]
molecule = "C=C(C)[C@@H]1CCC(C)=C[C@H]1c1c(O)cc(CCC)cc1O"
target_of_assay = "SKO"
measure_name = "% VIABILITY ± S.D."
observed_result = "82.1 ± 5.2%"

[[record]]
molecule = "CCCCCc1cc(O)c2c(c1)OC(C)(C)c1ccc(C)cc1-2"
target_of_assay = "SKO"
measure_name = "% VIABILITY ± S.D."
observed_result = "89.2 ± 5.9%"


The measurements presented in this section are drawn from patent US20230233583A1.
